Taken from the supplement of paper PMC13380429.

system: Vero E6 infected with SARS-CoV-2; experiment: inhibition of SARS-CoV-2 cytopathic effect; higher = more antiviral protection, active = above 15; settings: 100 nM; 48 h
Listed below: inhibition of SARS-CoV-2 cytopathic effect values for each entry.
propertyMeasured: inhibition of SARS-CoV-2 cytopathic effect (%)

molecule | assayTarget | valueObserved
CCn1c2ccccc2c2cc(CNCc3ccccc3OC)ccc21 | Vero E6 infected with SARS-CoV-2 | 0.25
N#C[C@H](O[C@@H]1O[C@H](CO[C@@H]2O[C@H](CO)[C@@H](O)[C@H](O)[C@H]2O)[C@@H](O)[C@H](O)[C@H]1O)c1ccccc1 | Vero E6 infected with SARS-CoV-2 | 0.79
O=C(N[C@H]1CN2CCC1CC2)c1ccc(Cl)cc1 | Vero E6 infected with SARS-CoV-2 | 1.21
C=CC(=O)Nc1cc2c(Nc3ccc(F)c(Cl)c3)ncnc2cc1OCCCN1CCOCC1 | Vero E6 infected with SARS-CoV-2 | -6.93
CS(=O)(=O)c1ccc([C@@H](O)[C@@H](CF)NC(=O)C(Cl)Cl)cc1 | Vero E6 infected with SARS-CoV-2 | -3.16
CCCCCCCCCCCCCCCCOP(=O)([O-])OCC[N+](C)(C)C | Vero E6 infected with SARS-CoV-2 | 0.27
OC[C@H]1O[C@H](O[C@H]2O[C@H](CO)[C@@H](O)[C@H](O)[C@H]2O)[C@H](O)[C@@H](O)[C@@H]1O | Vero E6 infected with SARS-CoV-2 | 5.33
CC(C)=CCC/C(C)=C/CNCCNC1C2CC3CC(C2)CC1C3 (centres undefined) | Vero E6 infected with SARS-CoV-2 | 1.62
Oc1cc(O)cc(/C=C/c2ccc(O)c(O)c2)c1 | Vero E6 infected with SARS-CoV-2 | -0.97
C1Cc2[nH]nc(-c3nn[nH]n3)c2C1 | Vero E6 infected with SARS-CoV-2 | -1.82
NS(=O)(=O)C#Cc1ccccc1 | Vero E6 infected with SARS-CoV-2 | 2.87
COc1cc(N2CCC(N3CCN(C)CC3)CC2)ccc1Nc1ncnc(Nc2ccccc2S(=O)(=O)C(C)C)n1 | Vero E6 infected with SARS-CoV-2 | 1.16
C[N+](C)(C)CCOC(=O)CCC(=O)OCC[N+](C)(C)C [succinylcholine-chloride] | Vero E6 infected with SARS-CoV-2 | -2.35
O[C@@H]1CO[C@H]2[C@@H]1OC[C@@H]2O [isosorbide] | Vero E6 infected with SARS-CoV-2 | 1.18
CC(C)(C)c1ccc(O)cc1 | Vero E6 infected with SARS-CoV-2 | -1.66
COC(=O)Nc1nc2cc(C(=O)c3cccs3)ccc2[nH]1 | Vero E6 infected with SARS-CoV-2 | 0.53
CC(C)/N=c1\cc2n(-c3ccc(Cl)cc3)c3ccccc3nc-2cc1Nc1ccc(Cl)cc1 | Vero E6 infected with SARS-CoV-2 | -2.66
Cc1ccc(O)c(N=Nc2ccccc2)n1 | Vero E6 infected with SARS-CoV-2 | -3.53
CCOCCn1c(N2CCCN(C)CC2)nc2ccccc21 | Vero E6 infected with SARS-CoV-2 | -2.49
